test-system: human ABCB4 (Homo sapiens, UniProt P21439)
Construct: made in house; host or cells: Pichia pastoris (chromosomally integrated)
Sequence (P21439 1-1279 isoform P21439-2): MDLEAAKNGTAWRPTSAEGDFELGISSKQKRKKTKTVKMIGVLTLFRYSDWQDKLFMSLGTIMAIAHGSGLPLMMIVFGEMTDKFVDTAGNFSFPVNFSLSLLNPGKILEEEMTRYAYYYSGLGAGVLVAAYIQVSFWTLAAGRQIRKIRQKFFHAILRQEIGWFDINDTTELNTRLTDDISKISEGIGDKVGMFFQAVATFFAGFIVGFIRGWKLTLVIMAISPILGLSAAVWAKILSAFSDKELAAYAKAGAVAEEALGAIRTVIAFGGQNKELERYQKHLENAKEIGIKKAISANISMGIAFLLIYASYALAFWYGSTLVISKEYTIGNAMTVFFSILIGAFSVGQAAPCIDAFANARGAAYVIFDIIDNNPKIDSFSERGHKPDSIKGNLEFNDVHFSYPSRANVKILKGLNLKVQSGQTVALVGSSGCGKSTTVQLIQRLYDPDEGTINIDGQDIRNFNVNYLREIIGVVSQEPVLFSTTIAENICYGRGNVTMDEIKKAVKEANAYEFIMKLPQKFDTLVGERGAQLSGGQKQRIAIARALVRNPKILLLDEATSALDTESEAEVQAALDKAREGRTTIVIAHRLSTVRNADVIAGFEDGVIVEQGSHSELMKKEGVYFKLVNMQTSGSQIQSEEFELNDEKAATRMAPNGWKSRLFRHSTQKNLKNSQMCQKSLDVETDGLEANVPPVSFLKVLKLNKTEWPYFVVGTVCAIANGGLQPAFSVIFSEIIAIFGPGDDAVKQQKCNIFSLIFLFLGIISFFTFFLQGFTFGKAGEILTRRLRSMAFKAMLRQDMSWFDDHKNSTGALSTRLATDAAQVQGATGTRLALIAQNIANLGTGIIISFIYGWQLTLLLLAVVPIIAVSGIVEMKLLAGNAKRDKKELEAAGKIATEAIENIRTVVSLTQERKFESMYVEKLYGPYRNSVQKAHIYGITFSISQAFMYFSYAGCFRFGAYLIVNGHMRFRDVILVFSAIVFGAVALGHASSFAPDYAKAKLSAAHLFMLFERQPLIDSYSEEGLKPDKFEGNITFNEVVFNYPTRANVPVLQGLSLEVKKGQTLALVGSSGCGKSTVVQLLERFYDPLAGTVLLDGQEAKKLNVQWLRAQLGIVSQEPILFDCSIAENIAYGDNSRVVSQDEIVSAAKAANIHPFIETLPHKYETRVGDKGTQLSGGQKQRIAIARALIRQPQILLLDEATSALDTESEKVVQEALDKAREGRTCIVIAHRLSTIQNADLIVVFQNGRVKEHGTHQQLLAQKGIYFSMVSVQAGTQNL
experiment: ATP hydrolysis (malachite green) of detergent-solubilized, purified ABCB4: modulation of basal ATPase activity
Assay type: biochemical
condition-context: vmax of allosteric sigmoidal fit (Equation 1); basal ABCB4 ATPase activity set to 0%; 0-1,000 μM; read-out: Max. Stimulation (%)
Procedure: The sodium salts of conjugated and unconjugated bile acids were dissolved in double-distilled water (ddH2O) or 100% DMSO at a concentration of 100 mM. […] Modulation of the ATP hydrolysis by bile acid was determined in a concentration-dependent manner from 0 to 1,000 μM bile acids. […] In case of inhibition, the reduction (%) was plotted against the bile acid concentration and data were analyzed using Equation 2:(2) y=ymin+(ymax−ymin)/1+10^((logIC50−x)∗slope) […]
measure: Emax (%)

Example entries begin here.
Prompt: # query: Emax of entry C[C@H](CCC(=O)O)[C@H]1CC[C@H]2[C@@H]3[C@@H](O)C[C@@H]4C[C@H](O)CC[C@]4(C)[C@H]3CC[C@]12C [UDCA, Ursodeoxycholic acid]
Response: 110

Prompt: # query: Emax of entry C[C@H](CCC(=O)O)[C@H]1CC[C@H]2[C@@H]3CC[C@@H]4C[C@H](O)CC[C@]4(C)[C@H]3C[C@H](O)[C@]12C [DCA, deoxycholic acid]
Response: 214

Prompt: # query: Emax of entry C[C@H](CCC(=O)NCCS(=O)(=O)O)[C@H]1CC[C@H]2[C@@H]3[C@@H](O)C[C@@H]4C[C@H](O)CC[C@]4(C)[C@H]3CC[C@]12C [TUDCA]
Response: 154

Prompt: # query: Emax of entry C[C@H](CCC(=O)NCCS(=O)(=O)O)[C@H]1CC[C@H]2[C@@H]3CC[C@@H]4C[C@H](O)CC[C@]4(C)[C@H]3C[C@H](O)[C@]12C [TDCA]
Response: 217

A: C[C@H](CC(=O)O)[C@H]1CC[C@H]2[C@@H]3[C@@H](O)C[C@@H]4C[C@H](O)CC[C@]4(C)[C@H]3CC[C@]12C [Nor-UDCA, 24-nor-ursodeoxycholic acid]
B: C[C@H](CCC(=O)NCCS(=O)(=O)O)[C@H]1CC[C@H]2[C@@H]3[C@H](O)C[C@@H]4C[C@H](O)CC[C@]4(C)[C@H]3CC[C@]12C [TCDCA, taurochenodeoxycholic acid]
Prompt: Among A and B , whose measured Emax is the smaller figure? Give the label of your selection.
Response: A

====

test-system: human ABCB4 (Homo sapiens)
Construct: made in house; host or cells: Pichia pastoris (chromosomally integrated)
experiment: ATP hydrolysis (malachite green) of purified ABCB4 in the presence of 300 μM DOPC (with or without cholesterol)
Type: biochemical
condition-context: 1,000 μM bile acid/detergent/BAM + 300 μM DOPC; DOPC alone set to 100%; read-out: Relative ATPase activity in the presence of 300 μM DOPC
measure: activity at 1000 µM (%)

1: C[C@H](CCC(=O)NCCS(=O)(=O)O)[C@H]1CC[C@H]2[C@@H]3[C@H](O)C[C@@H]4C[C@H](O)CC[C@]4(C)[C@H]3CC[C@]12C [TCDCA, taurochenodeoxycholic acid]
2: C[C@H](CCC(=O)NCC(=O)O)[C@H]1CC[C@H]2[C@@H]3[C@H](O)C[C@@H]4C[C@H](O)CC[C@]4(C)[C@H]3C[C@H](O)[C@]12C [GCA]
3: C[C@H](CC(=O)O)[C@H]1CC[C@H]2[C@@H]3[C@@H](O)C[C@@H]4C[C@H](O)CC[C@]4(C)[C@H]3CC[C@]12C [Nor-UDCA, 24-nor-ursodeoxycholic acid]
Prompt: Sequence the entries by activity at 1000 µM, beginning with the highest number. Form entry: ranked labels (order as requested).
Response: 3, 2, 1
(3: 373%, 2: 171%, 1: 112%)

====

test-system: human ABCB4 (Homo sapiens, UniProt P21439)
Construct: made in house; host or cells: Pichia pastoris (chromosomally integrated)
experiment: ATP hydrolysis (malachite green) of detergent-solubilized, purified ABCB4: modulation of basal ATPase activity
Format: biochemical
condition-context: basal ATPase activity, 0-1,000 μM
measure: Concentration at which maximal stimulation (plateau) of ATPase activity is reached

Prompt: # query: Concentration at which maximal stimulation (plateau) of ATPase activity is reached of entry C[C@H](CCC(=O)NCCS(=O)(=O)O)[C@H]1CC[C@H]2[C@@H]3[C@H](O)C[C@@H]4C[C@H](O)CC[C@]4(C)[C@H]3C[C@H](O)[C@]12C [TCA, taurocholic acid]
Response: approximately 400 μM

Prompt: # query: Concentration at which maximal stimulation (plateau) of ATPase activity is reached of entry C[C@H](CCC(=O)NCC(=O)O)[C@H]1CC[C@H]2[C@@H]3[C@H](O)C[C@@H]4C[C@H](O)CC[C@]4(C)[C@H]3C[C@H](O)[C@]12C [GCA]
Response: approximately 400 μM

====

test-system: human ABCB4 (Homo sapiens)
Construct: made in house; host or cells: Pichia pastoris (chromosomally integrated)
experiment: ATP hydrolysis (malachite green) of detergent-solubilized, purified ABCB4: modulation of basal ATPase activity
Assay type: biochemical
condition-context: Hill coefficient of allosteric sigmoidal fit of ATPase stimulation
measure: Slope

Example entries begin here.
Prompt: # query: Slope of entry C[C@H](CCC(=O)NCCS(=O)(=O)O)[C@H]1CC[C@H]2[C@@H]3CC[C@@H]4C[C@H](O)CC[C@]4(C)[C@H]3C[C@H](O)[C@]12C
Response: 2.7

Prompt: # query: Slope of entry C[C@H](CCC(=O)NCCC[N+](C)(C)CCCS(=O)(=O)[O-])[C@H]1CC[C@H]2[C@@H]3[C@H](O)C[C@@H]4C[C@H](O)CC[C@]4(C)[C@H]3C[C@H](O)[C@]12C
Response: 3.7

Prompt: # query: Slope of entry C[C@H](CCC(=O)NCC(=O)O)[C@H]1CC[C@H]2[C@@H]3[C@H](O)C[C@@H]4C[C@H](O)CC[C@]4(C)[C@H]3CC[C@]12C
Response: 3.9

Prompt: # query: Slope of entry C[C@H](CCC(=O)O)[C@H]1CC[C@H]2[C@@H]3[C@H](O)C[C@@H]4C[C@H](O)CC[C@]4(C)[C@H]3C[C@H](O)[C@]12C
Response: 2.8

a: C[C@H](CCC(=O)NCC(=O)O)[C@H]1CC[C@H]2[C@@H]3[C@H](O)C[C@@H]4C[C@H](O)CC[C@]4(C)[C@H]3C[C@H](O)[C@]12C
b: C[C@H](CCC(=O)O)[C@H]1CC[C@H]2[C@@H]3[C@H](O)C[C@@H]4C[C@H](O)CC[C@]4(C)[C@H]3CC[C@]12C
c: C[C@H](CCC(=O)NCCS(=O)(=O)O)[C@H]1CC[C@H]2[C@@H]3[C@@H](O)C[C@@H]4C[C@H](O)CC[C@]4(C)[C@H]3CC[C@]12C
Prompt: Parameters: sort_field (Slope), sort_dir (desc). Form entry: ranked labels (order as requested).
Response: c, a, b

====

test-system: human ABCB4 (Homo sapiens, UniProt P21439)
Construct: made in house; host or cells: Pichia pastoris (chromosomally integrated)
experiment: ATP hydrolysis (malachite green) of purified ABCB4 in the presence of 300 μM DOPC (with or without cholesterol)
Type: biochemical
condition-context: 1,000 μM bile acid/detergent/BAM + 300 μM DOPC; DOPC alone set to 100%; read-out: Relative ATPase activity in the presence of 300 μM DOPC
measure: activity at 1000 µM (%)

Prompt: # query: activity at 1000 µM of entry C[C@H](CCC(=O)NCCS(=O)(=O)O)[C@H]1CC[C@H]2[C@@H]3[C@@H](O)C[C@@H]4C[C@H](O)CC[C@]4(C)[C@H]3CC[C@]12C [TUDCA]
Response: 88.2

Prompt: # query: activity at 1000 µM of entry C[C@H](CCC(=O)NCCS(=O)(=O)O)[C@H]1CC[C@H]2[C@@H]3CC[C@@H]4C[C@H](O)CC[C@]4(C)[C@H]3C[C@H](O)[C@]12C [TDCA]
Response: 84.8

Prompt: # query: activity at 1000 µM of entry C[C@H](CCC(=O)NCC(=O)O)[C@H]1CC[C@H]2[C@@H]3CC[C@@H]4C[C@H](O)CC[C@]4(C)[C@H]3C[C@H](O)[C@]12C [GDCA]
Response: 156

Prompt: # query: activity at 1000 µM of entry C[C@H](CCC(=O)NCC(=O)O)[C@H]1CC[C@H]2[C@@H]3[C@H](O)C[C@@H]4C[C@H](O)CC[C@]4(C)[C@H]3CC[C@]12C [GCDCA]
Response: 127
